Structures can show the parent of a compound that is named as a salt.
Overview of reported melting point across a group of molecules:
ASSAY READOUT: melting point

CNCc1ccccc1Cc1cccc2[nH]ccc12 [Compound 16]
111 to 112 °C
CNCc1ccccc1Cc1ccc2[nH]c(S(C)(=O)=O)cc2c1 (as salt: fumarate) [Compound 49]
179 to 180 °C
CNCCc1ccccc1Cc1ccc2[nH]ccc2c1
95 to 97 °C
CNCc1ccccc1Cc1ccc2[nH]ccc2c1 (as salt: hydrochloride) [Compound 1]
198 to 199 °C
CNCc1cc(NS(C)(=O)=O)ccc1Cc1ccc2[nH]ccc2c1 [Compound 41]
125 to 126 °C
c1cc2c(c(Cc3ccc4[nH]ccc4c3)c1)CCNC2
194 to 195 °C
CNCc1cccc(Cc2ccc3[nH]ccc3c2)c1 [Compound 32]
153 °C
CNCc1ccccc1C(O)c1ccc2[nH]ccc2c1 (centres unmarked) [Compound 24]
75 to 78 °C
CNCc1scnc1Cc1ccc2[nH]ccc2c1 [Compound 45]
152 to 153 °C
NCC(O)c1ccccc1Cc1ccc2[nH]ccc2c1 (centres unmarked) [Compound 47]
70 to 72 °C
CNCc1ccccc1Cc1ccc2cc[nH]c2c1 [Compound 15]
132 °C
c1cc2c(c(Cc3ccc4[nH]ccc4c3)c1)CNCC2
173 to 174 °C
CNCc1ccccc1Cc1ccc2[nH]cc(C#N)c2c1 [Compound 29]
179 to 180 °C
CNCc1cc(F)ccc1Cc1ccc2[nH]ccc2c1 [Compound 20]
162 to 163 °C
CNCc1ccc(C(N)=O)cc1Cc1ccc2[nH]ccc2c1 [Compound 44]
97 to 100 °C
OCCNCc1ccccc1Cc1ccc2[nH]ccc2c1 [Compound 21]
117 to 118 °C
CNCc1cc(OC)ccc1Cc1ccc2[nH]ccc2c1 [Compound 34]
155 to 156 °C
CNCc1cc(C#N)ccc1Cc1ccc2[nH]ccc2c1 [Compound 38]
144 to 145 °C
CNCc1cc(N2CCOCC2)ccc1Cc1ccc2[nH]ccc2c1 (as salt: fumarate) [Compound 39]
135 to 136 °C
c1ccc(Cn2ccnc2)c(Cc2ccc3[nH]ccc3c2)c1 [Compound 25]
61 to 67 °C
c1ccc(N2CCOCC2)c(Cc2ccc3[nH]ccc3c2)c1 [Compound 48, 5-(2-Morpholin-4-yl-benzyl)-1H-indole]
189 to 190 °C
CNCc1ccc(C#N)cc1Cc1ccc2[nH]ccc2c1 [Compound 43]
160 to 163 °C
CNCc1ccc(OC)cc1Cc1ccc2[nH]ccc2c1 [Compound 33]
157 to 158 °C
O=C1CNCCN1c1ccccc1Cc1ccc2[nH]ccc2c1 [Compound 42]
100 to 102 °C
CNCc1cc(Cl)ccc1Cc1ccc2[nH]ccc2c1 [Compound 27]
164 to 165 °C
c1ccc(CN2CCC2)c(Cc2ccc3[nH]ccc3c2)c1 [Compound 18]
128 to 130 °C
